Each recorded value in this set is attributed to patent US7119189B2.

target: recombinant GABABR1a receptors in membranes from COS 1 cells (Rattus norvegicus, UniProt Q9Z0U4); construct: The protein expressed from the 4,376 bp cDNA clone has an apparent molecular mass of about 120 kDa; expressed in transfected cells; host or cells: COS1 cells, transient transfection with the cDNA clone in pcDNAI; test: biochemical; format: binding; details: recombinant GABABR1a expressed in COS1 cells; read-out: Inhibition of [125I]CGP 64213 binding, COS1 cells IC50
Sequence (Q9Z0U4 20-960): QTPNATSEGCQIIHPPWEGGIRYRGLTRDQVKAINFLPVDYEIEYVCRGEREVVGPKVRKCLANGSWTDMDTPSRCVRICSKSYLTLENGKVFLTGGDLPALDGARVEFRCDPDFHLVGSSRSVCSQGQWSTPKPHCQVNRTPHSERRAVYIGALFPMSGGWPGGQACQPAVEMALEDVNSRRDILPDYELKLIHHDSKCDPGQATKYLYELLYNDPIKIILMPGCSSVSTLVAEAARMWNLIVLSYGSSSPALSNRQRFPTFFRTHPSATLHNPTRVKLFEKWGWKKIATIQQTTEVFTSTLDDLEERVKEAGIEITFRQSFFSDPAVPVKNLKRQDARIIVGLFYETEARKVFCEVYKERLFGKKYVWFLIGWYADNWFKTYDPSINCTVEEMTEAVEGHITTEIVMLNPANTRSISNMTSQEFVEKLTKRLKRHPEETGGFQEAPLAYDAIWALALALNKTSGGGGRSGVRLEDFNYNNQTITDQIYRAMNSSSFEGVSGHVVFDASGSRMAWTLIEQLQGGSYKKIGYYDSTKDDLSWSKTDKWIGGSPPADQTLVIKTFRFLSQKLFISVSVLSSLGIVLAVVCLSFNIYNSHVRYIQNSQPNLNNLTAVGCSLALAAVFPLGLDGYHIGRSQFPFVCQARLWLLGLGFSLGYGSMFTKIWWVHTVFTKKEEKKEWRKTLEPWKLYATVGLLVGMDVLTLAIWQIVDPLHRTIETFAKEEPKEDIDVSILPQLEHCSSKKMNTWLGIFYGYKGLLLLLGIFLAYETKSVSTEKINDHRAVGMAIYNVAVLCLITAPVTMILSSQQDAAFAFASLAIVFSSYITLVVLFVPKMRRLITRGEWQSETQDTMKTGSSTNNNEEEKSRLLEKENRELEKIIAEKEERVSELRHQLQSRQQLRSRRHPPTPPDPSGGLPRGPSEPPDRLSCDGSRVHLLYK
readout: pIC50
Worth noting: pIC50 values are minus log10 of concentrations stated in mol/L.

The reported pIC50 of the compound C[C@H](NC[C@H](O)CP(=O)(O)CC1CCCCC1)c1ccc(Cl)c(Cl)c1 [CGP 54626A] was 8.80
